The reported numbers originate from patent US20230220073A1.

# key: entry, value: kon
Molecular target: T1, Histidine-tagged ROR1 protein (extracellular region) (UniProt Q01973 30-406)
T1 construct: extracellular domain; also called extracellular portion of ROR1 bearing a Histidine tag; not shown: Histidine tag
T1 sequence (Q01973 30-406): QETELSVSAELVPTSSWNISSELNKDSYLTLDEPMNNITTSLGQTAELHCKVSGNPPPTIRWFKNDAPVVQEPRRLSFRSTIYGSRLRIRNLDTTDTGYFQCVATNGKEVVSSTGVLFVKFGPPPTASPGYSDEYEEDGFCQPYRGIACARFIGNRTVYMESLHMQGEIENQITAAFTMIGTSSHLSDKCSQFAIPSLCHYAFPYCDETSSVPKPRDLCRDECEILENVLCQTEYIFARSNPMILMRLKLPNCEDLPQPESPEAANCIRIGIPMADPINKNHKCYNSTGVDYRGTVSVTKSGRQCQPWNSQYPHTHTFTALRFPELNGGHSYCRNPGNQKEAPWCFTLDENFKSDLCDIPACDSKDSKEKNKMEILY
Assay: SPR, Biacore X100; antibody captured by anti-human IgG1 on CM5 chip, His-tagged ROR1 extracellular portion injected at 1.5-100 nM
Description: FIG. 3: KD determination by surface plasmon resonance. Sensorgrams obtained using a Biacore X100 instrument are shown. Briefly, ROR1 antibodies were immobilized using a CM5 chip and seven different concentrations of the Histidine-tagged ROR1 protein (extracellular region) were injected. Concentrations ranged from […]. We undertook surface plasmon resonance evaluation using a Biacore X100 instrument. […]
Write down the numeric answer in M⁻¹ s⁻¹ and omit the unit.

Solved cases (2 shown):
- Binder: "Clone G3 chimeric ROR1 antibody (antibody, V domains shown) VH: EVQLQESGPGLVKPAQSLSLTCSVTGYSITNMYRWNWIRKFPGNKLEWMGYINTAGSTDYSPSLRGRVSITGDTSKNQFFLHLTSVTTEDTATYYCAGFITNPFDFWGQGVMVTVSS VL: DVVMTQTPVSLPVSLGGQVSISCRSSQSLEHSNGDTFLHWYLQKPGQSPRLLIYRVSNRFSGVPDRFSGSGSGTDFTLKISRIEPEDLGDYYCLQSTHFPNTFGAGTKLELK"
  Observable: "kon"
  Numeric Result: 109000
- Binder: "Clone G5 chimeric ROR1 antibody (antibody, V domains shown) VH: EVQVVESGGGLVQPGRSLKLSCVPSGFTFNNYWMTWIRQAPGKAPEWVASISNTGGSTFYPDSVRGRFSISRDNTKGTLYLHMTSLRSEDTATYYCIRNMDAWGQGTSVTVSS VL: DIQLTQSPSTLSASLGERVTISCRASQSISNSLNWYQQKPDGTVKRLIYSTSTLESGVPSRFSGSGSGTDFSLSISSLESEDFAMYYCLQFATYPQVTFGSGTKLEIK"
  Observable: "kon"
  Numeric Result: 159000

Shift focus to the following entry.
Query block: Returns the measured kon for the input binder. Input: Clone J chimeric ROR1 antibody (antibody, V domains shown, also called J6) VH: DVKLVESGGGLLKPGGSLKLSCVASGFSFSKYWMHWVRQAPGQGLEWIAEIEYDGTETNYAPSIKDRFTISRDNAKNTLYLQMSNVRFEDAATYFCTTEEMHTTDYYYGFAYWGQGTLVTVSS VL: DIVLTQSPALAVSVGQRATISCRASQSVSISRYDFMHWYQQKPGQQPKLLIYRASNLASGIPARFSGSGSGTDFTLTINPVQADDIATYYCQQNRESPRTFGGGTKLELK
Result block: 249000
